// reported % blocking per item
# Target Or System: T1, human Gal3 protein (recombinant human Galectin-3) (human, UniProt P17931 2-250)
# T1 construct: also called hGal3; hGAL3
# T1 sequence (P17931 2-250 limits assumed): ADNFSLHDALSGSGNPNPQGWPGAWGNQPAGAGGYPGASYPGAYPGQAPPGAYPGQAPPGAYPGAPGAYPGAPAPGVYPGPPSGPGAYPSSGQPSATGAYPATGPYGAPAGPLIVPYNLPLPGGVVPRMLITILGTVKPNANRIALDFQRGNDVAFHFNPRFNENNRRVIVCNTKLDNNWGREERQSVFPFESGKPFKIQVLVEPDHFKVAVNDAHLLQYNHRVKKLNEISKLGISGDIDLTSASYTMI

| Binder | % blocking |
| --- | --- |
| 2D10.2B2 (antibody, mouse IgG2a, V domains shown) VH: QVQLQQSGPELVKPGASVKISCKASGYTFTDYYINWVKQRPGQGLEWIGWIYPGSNDTKYNEKFKGKATLTVDTSSSTAYMQLGSLTSEDSAVYFCANYFGCSGWFFDVWGTGTTVTVSS VL: DIVMTQAAFSNPVTLGTSASISCRSSKSLLHSDGITYLYWYLQRPGQSPQLLIYRMSNLASGVPDRFSGSGSGTDFTLRISRVEAEDVGVYYCAQMIEFPLTFGAGTILELKR | > 95% |
| 24D12.2H9 (antibody, human IgG4 S228P, kappa, V domains shown) VH: QVQLKQSGPGLVQPSQSLSITCTVSGFSLTSYGVHWVRQAPGKGLEWLGVIWSGGSTDYNAAFMSRLSISKDNSKSQVFFKMNSLQADDTAIYYCAKSPDGYDVAWFGYWGQGTLVTVSA VL: DIVMTQSHKFMSTSVGDRVSITCKASQDVRTAVAWYQQKPGQSPKLLIYWASTRHTGVPDRFTGSGSGTDFTLTLSNVQSEDLADYFCQQYSSYPWTFGGGTKLEIKR | 55% |
| 6H6.2D6 (antibody, human IgG4 S228P, kappa, V domains shown) VH: QIQLVQSGPELKKPGETVKISCKASGYTFTTYGMSWVKQAPGKGLKWMAWINTYSGVPTYADDFKGRFAFSLETSASTAYLQINNLTNEDTATYFCARGPYAMDYWGQGTSVTVSS VL: DIQMTQTTSSLSASLGDRVTISCSASQGISNYLNWYQQKPDGTVKLLIYYTSSLHSGVPSRFSGSGSGTDYSLTISNLEPEDIATYYCQQYSELPYTFGSGTKLEIKR | > 95% |
| mIMT001 (antibody, mouse IgG2a, V domains shown, also called murine IMT1; mIMT1) VH: QIQLVQSGPELKKPGETVKISCKASGYTFTNYGMNWVKQAPGKGLKWMGWINTNTGEPTYVEEFKGRFAFSLETSASTAYLQINNLKNEDTATYFCAPYDNFFAYWGQGTLVTVSA VL: DIVITQDELSNPVTSGESVSISCRSSKSLLYKDGKTYLNWFLQRPGQSPQLLIYLMSTHASGVSDRFSGSGSGTDFTLEISRVKAEDVGVYYCQQLVDYPLTFGAGTKLELKR | > 95% |
